All figures here come from ChEMBL document CHEMBL3580659.

System: Escherichia coli
Assay: Induction of DNA cleavage of Escherichia coli pUC18 plasmid DNA at 50 ug/ml after 2 hrs by agarose gel elctrophoresis method
Active and inactive are the calls of the source. The calls are words filed in the database; no cut-off is given here.
Measured Parameter: Activity

// solved cases for Activity follow
| Structure Notation | System Under Test | Activity |
| --- | --- | --- |
| COc1ccc2[nH]cc(/C=N/Nc3nc(-c4cc5ccccc5oc4=O)cs3)c2c1 | Escherichia coli | Active |
| CCn1cc(/C=N/Nc2nc(-c3cc4cc(Br)ccc4oc3=O)cs2)c2ccccc21 | Escherichia coli | Active |
| CCn1cc(/C=N/Nc2nc(-c3cc4cc(Br)cc(Br)c4oc3=O)cs2)c2ccccc21 | Escherichia coli | Active |
| Cc1[nH]c2ccccc2c1/C=N/Nc1nc(-c2cc3ccccc3oc2=O)cs1 | Escherichia coli | Active |

Parameter requested: Activity. Apply to each item below.
1. O=c1oc2ccc(Cl)cc2cc1-c1csc(N/N=C/c2c[nH]c3ccccc23)n1
2. O=c1oc2ccc3ccccc3c2cc1-c1csc(N/N=C/c2c[nH]c3ccccc23)n1

stdout:
Active
Active
